Answer each item with its documented MIC.
System: VSE775
methodSummary: MIC, microdilution broth method
Type: cell-based, Enterococcus faecalis
assayContext: VSE775; in µg/mL
Numbers only.

molecule="O=C(O)c1cn(C2CC2)c2cc(N3CCN(CCc4cccc5ccccc45)CC3)c(F)cc2c1=O [ML-77-171]" measurementname=MIC resultvalue=4
molecule="O=C(O)c1cn(C2CC2)c2cc(N3CCN(Cc4cccc5c4CCCC5)CC3)c(F)cc2c1=O [ML-77-076]" measurementname=MIC resultvalue=2
molecule="CCn1cc(C(=O)O)c(=O)c2cc(F)c(N3CCNCC3)cc21 [Norfloxacin, norfloxacin, reference compound]" measurementname=MIC resultvalue=8

Turning now to a further record.
The molecule listed as `O=C(O)c1cn(C2CC2)c2cc(N3CCN(Cc4ccc(I)cc4)CC3)c(F)cc2c1=O` has a reported MIC of 2

Recorded values, source patent US11746116B2.
